- EXPERIMENTAL_TARGET: IL-1β (UniProt P01584 117-269)
- PROTOCOL_TEXT: Biacore, Fab periplasmic extract on IL-1β
Classification field: t = fold difference in affinity vs original at or over 0.7 fold; f = fold difference in affinity vs original under 0.7 fold.

BINDER	QUALITATIVE_LABEL
XPA23 light chain S53L (Fab, V domains shown, Single light chain substitution; Fab in periplasmic extract; also called C5A (XPA23) S53L) VH: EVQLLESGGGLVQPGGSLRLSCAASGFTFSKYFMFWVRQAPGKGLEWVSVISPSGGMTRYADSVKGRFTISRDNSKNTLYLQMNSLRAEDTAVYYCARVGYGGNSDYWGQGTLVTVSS VL: DIQMTQSPSSVSASVGDRLTIICRASQDINRWLAWYQQTPGNAPKLLIHSATLLQSGVPSRFSGSGSGTDFTLTINSLQPEDFATYYCQQADSFPLTFGGGTKVEIK	t
XPA23 light chain A91T (Fab, V domains shown, Single light chain substitution; Fab in periplasmic extract; also called C5A (XPA23) A91T) VH: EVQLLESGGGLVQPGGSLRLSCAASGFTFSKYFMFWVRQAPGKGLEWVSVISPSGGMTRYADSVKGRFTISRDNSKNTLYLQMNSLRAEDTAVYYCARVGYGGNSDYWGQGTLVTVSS VL: DIQMTQSPSSVSASVGDRLTIICRASQDINRWLAWYQQTPGNAPKLLIHSATSLQSGVPSRFSGSGSGTDFTLTINSLQPEDFATYYCQQTDSFPLTFGGGTKVEIK	f
XPA23 light chain F94V (Fab, V domains shown, Single light chain substitution; Fab in periplasmic extract; also called C5A (XPA23) F94V) VH: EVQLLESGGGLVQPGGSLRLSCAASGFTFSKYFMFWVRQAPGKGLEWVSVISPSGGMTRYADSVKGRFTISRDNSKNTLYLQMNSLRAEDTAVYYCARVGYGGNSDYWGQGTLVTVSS VL: DIQMTQSPSSVSASVGDRLTIICRASQDINRWLAWYQQTPGNAPKLLIHSATSLQSGVPSRFSGSGSGTDFTLTINSLQPEDFATYYCQQADSVPLTFGGGTKVEIK	f
XPA23 light chain F94L (Fab, V domains shown, Single light chain substitution; Fab in periplasmic extract; also called C5A (XPA23) F94L) VH: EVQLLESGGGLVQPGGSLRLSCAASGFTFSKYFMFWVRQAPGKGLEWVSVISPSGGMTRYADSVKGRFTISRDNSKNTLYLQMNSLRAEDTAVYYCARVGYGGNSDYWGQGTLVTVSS VL: DIQMTQSPSSVSASVGDRLTIICRASQDINRWLAWYQQTPGNAPKLLIHSATSLQSGVPSRFSGSGSGTDFTLTINSLQPEDFATYYCQQADSLPLTFGGGTKVEIK	f

Next binder, please.
Could you tell me if the measured fold difference in affinity vs original of XPA23 light chain S93G (Fab, V domains shown, Single light chain substitution; Fab in periplasmic extract; also called C5A (XPA23) S93G) VH: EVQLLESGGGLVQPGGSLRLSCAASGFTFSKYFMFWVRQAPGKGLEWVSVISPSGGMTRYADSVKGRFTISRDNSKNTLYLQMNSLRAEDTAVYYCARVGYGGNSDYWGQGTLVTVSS VL: DIQMTQSPSSVSASVGDRLTIICRASQDINRWLAWYQQTPGNAPKLLIHSATSLQSGVPSRFSGSGSGTDFTLTINSLQPEDFATYYCQQADGFPLTFGGGTKVEIK reaches 0.7 fold or more?
t
